Assign protein stability index to each entry below.
B1: MFF (parent)
chain: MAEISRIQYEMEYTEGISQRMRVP

variants of: B1; assay: protein stability index of a GFP-peptide fusion (GPS, HEK-293T) (PSI 1-6); higher = more stable; conditions: c terminus: a fixed tail appended;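 further: lentivirally expressed fusions sorted by FACS into six bins by GFP to DsRed ratio, PSI derived from sequencing read proportions per bin multiplied by bin number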
Answer using only a numeral; do not append any unit.

Ask | For the variant shown here, MAEVSRIQYEMEYTEGISQRMRVP [I4V] , give the reported protein stability index.
Reply | 2.74

Ask | For the variant shown here, MAEISRIQYGMEYTEGISQRMRVP [E10G] , give the reported protein stability index.
Reply | 2.67

Ask | For the variant shown here, MAEISRIQYEMEYTRGISQRMRVP [E15R] , give the reported protein stability index.
Reply | 2.45

Ask | For the variant shown here, MAEISRIQYEMEYTEGISQRLRVP [M21L] , give the reported protein stability index.
Reply | 2.26

Ask | For the variant shown here, MAEISRIQYEMEYTQGISQRMRVP [E15Q] , give the reported protein stability index.
Reply | 2.42

Ask | For the variant shown here, MAEISRIQYEMEYTEGISQRMFVP [R22F] , give the reported protein stability index.
Reply | 1.69

Ask | For the variant shown here, MAEISRIQYEMEYTEGFSQRMRVP [I17F] , give the reported protein stability index.
Reply | 1.99
